// provenance: the supplement of paper PMC10724198

System: Saccharomyces cerevisiae;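 further: PSI is a weighted mean of sequencing reads over stability bins, variants kept only with over 10 reads, mCherry proximal and sfGFP distal, peptide attached via GGGS linker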
ASSAY OVERVIEW: protein stability index of tFT-peptide fusion (C-terminal peptide) (PSI (0-1 scale)); higher = more stable (slower turnover)
TEST SETTINGS: genetic background: wild type; temperature: 30 C
Use protein stability index to assign classes; range list: low interval: < 0.6; middle interval: ≥ 0.6 and < 0.7; high interval: ≥ 0.7

[Q] For `TTTQIIRISKSR` , which protein stability index bin applies?
[A] middle interval

[Q] Param item: `GSKVGGVGWRSG`
[A] high interval

[Q] Param item: `VAWWVCIRSCCG`
[A] low interval

[Q] Param item: `GDKGLRPNMGLV`
[A] middle interval

[Q] Param item: `PPAFPPPPSPPP`
[A] middle interval

[Q] Param item: `GAVKCLVCLAVW`
[A] low interval

More entries:
[Q] For `FLFASYFLENQR` , which protein stability index bin applies?
[A] high interval

[Q] Param item: `LPPLGAPQPPPP`
[A] high interval

[Q] Param item: `RLPLASPPHSSP`
[A] middle interval

[Q] Param item: `VVPDVGVVTSPA`
[A] middle interval

[Q] Param item: `RLGVWVWGFTPG`
[A] high interval

[Q] Param item: `HPPPDPLPSRPS`
[A] high interval
